molecular target: T1, recombinant human IL-6 (human, UniProt P05231 30-212); assay: SPR (Biacore), supernatant IgG on Protein A, 25 C
T1 construct: Flowed in solution over the captured antibodies
T1 sequence (P05231 30-212 limits assumed): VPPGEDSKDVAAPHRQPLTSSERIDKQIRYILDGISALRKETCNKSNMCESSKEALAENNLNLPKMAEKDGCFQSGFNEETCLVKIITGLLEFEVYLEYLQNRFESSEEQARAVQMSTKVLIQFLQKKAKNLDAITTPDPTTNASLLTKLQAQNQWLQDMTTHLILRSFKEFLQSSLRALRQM
Reported Endpoint: kon (M⁻¹ s⁻¹)
State the answer as a number, implicitly in M⁻¹ s⁻¹.

Before answering, review these 4 worked examples.
INSERT INTO results (binder, numeric_readout) VALUES
  ('anti-IL-6 antibody, heavy chain D62Q, light chain WT (antibody, IgG1, V domains shown, Full IgG1 tested; V domains derived as in m2) VH: EVQLVESGGGLVQPGGSLRLSCAASGFTFSPFAMSWVRQAPGKGLEWVAKISPGGSWTYYSQTVTGRFTFSLDTSKSTAYLQMNSLRAEDTAVYYCARQLWGYYALDIWGQGTLVTVSS VL: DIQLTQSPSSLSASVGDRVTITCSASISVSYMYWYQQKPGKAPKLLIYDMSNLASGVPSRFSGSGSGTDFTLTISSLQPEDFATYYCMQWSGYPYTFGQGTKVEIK', 403000),
  ('anti-IL-6 antibody, heavy chain F32G, light chain WT (antibody, IgG1, V domains shown, Full IgG1 tested; V domains derived as in m2) VH: EVQLVESGGGLVQPGGSLRLSCAASGFTFSPGAMSWVRQAPGKGLEWVAKISPGGSWTYYSDTVTGRFTFSLDTSKSTAYLQMNSLRAEDTAVYYCARQLWGYYALDIWGQGTLVTVSS VL: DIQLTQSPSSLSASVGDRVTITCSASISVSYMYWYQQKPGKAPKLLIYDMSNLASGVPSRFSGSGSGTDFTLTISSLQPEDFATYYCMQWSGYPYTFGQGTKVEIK', 418000),
  ('anti-IL-6 antibody, heavy chain WT, light chain S26K (antibody, IgG1, V domains shown, Full IgG1 tested; V domains derived as in m2) VH: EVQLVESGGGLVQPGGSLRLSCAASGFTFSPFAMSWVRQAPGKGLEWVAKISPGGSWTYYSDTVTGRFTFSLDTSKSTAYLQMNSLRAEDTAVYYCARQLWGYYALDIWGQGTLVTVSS VL: DIQLTQSPSSLSASVGDRVTITCSAKISVSYMYWYQQKPGKAPKLLIYDMSNLASGVPSRFSGSGSGTDFTLTISSLQPEDFATYYCMQWSGYPYTFGQGTKVEIK', 379000),
  ('anti-IL-6 antibody, heavy chain L100Q, light chain WT (antibody, IgG1, V domains shown, Full IgG1 tested; V domains derived as in m2) VH: EVQLVESGGGLVQPGGSLRLSCAASGFTFSPFAMSWVRQAPGKGLEWVAKISPGGSWTYYSDTVTGRFTFSLDTSKSTAYLQMNSLRAEDTAVYYCARQQWGYYALDIWGQGTLVTVSS VL: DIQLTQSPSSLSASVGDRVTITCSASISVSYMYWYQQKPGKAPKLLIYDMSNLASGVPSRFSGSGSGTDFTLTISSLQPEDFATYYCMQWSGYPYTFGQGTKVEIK', 398000);

Note to self: kon recorded for anti-IL-6 antibody, heavy chain F27G, light chain WT (antibody, IgG1, V domains shown, Full IgG1 tested; V domains derived as in m2) VH: EVQLVESGGGLVQPGGSLRLSCAASGGTFSPFAMSWVRQAPGKGLEWVAKISPGGSWTYYSDTVTGRFTFSLDTSKSTAYLQMNSLRAEDTAVYYCARQLWGYYALDIWGQGTLVTVSS VL: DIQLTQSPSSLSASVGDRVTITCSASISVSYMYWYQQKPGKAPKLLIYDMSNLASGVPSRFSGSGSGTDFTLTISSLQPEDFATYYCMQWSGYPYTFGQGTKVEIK was 856000
